Data credit: patent US20250163127A1

- experimental system: PD-L1 (human)
- Sequence (chain, as listed by the source): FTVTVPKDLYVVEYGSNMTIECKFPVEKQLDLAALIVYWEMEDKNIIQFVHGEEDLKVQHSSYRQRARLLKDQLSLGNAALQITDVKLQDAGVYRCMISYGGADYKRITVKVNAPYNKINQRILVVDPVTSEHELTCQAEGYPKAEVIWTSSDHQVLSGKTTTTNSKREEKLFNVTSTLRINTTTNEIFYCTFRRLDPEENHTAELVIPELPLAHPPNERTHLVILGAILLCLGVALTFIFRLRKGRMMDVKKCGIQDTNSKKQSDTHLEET
- protocol description: flow cytometry, CHO cells stably expressing PD-L1
readout: Fold change to WT (fold)

INSERT INTO assay_data (binder, readout, reported_value) VALUES
  ('CD80 variant H18L/V22A/E35D/M47L/N48T/L85Q IgV-Fc (Fc fusion) VIHVTKEVKEVATLSCGLNVSAEELAQTRIYWQKDKKMVLTMMSGDLTIWPEYKNRTIFDITNNLSIVILALRPSDEGTYECVVQKYEKDAFKREHLAEVT', 'Fold change to WT', 12.3);

A. CD80 variant Q33L/E35D/M47I/T62N/L85Q IgV-Fc (Fc fusion) VIHVTKEVKEVATLSCGHNVSVEELAQTRIYWLKDKKMVLTMMSGDINIWPEYKNRTIFDINNNLSIVILALRPSDEGTYECVVQKYEKDAFKREHLAEVT
B. CD80 variant Q33L/E35D/T41S/M47V IgV-Fc (Fc fusion) VIHVTKEVKEVATLSCGHNVSVEELAQTRIYWLKDKKMVLSMMSGDVNIWPEYKNRTIFDITNNLSIVILALRPSDEGTYECVVLKYEKDAFKREHLAEVT
Pick the one with the larger Fold change to WT: A vs B Respond using the label that marks the chosen record.
A
(A: 9.14 fold, B: 5.52 fold)
